- tgt: B-RAF(V600E) (Homo sapiens, UniProt P15056, V600E)
- Sequence (P15056 whole entry V600E): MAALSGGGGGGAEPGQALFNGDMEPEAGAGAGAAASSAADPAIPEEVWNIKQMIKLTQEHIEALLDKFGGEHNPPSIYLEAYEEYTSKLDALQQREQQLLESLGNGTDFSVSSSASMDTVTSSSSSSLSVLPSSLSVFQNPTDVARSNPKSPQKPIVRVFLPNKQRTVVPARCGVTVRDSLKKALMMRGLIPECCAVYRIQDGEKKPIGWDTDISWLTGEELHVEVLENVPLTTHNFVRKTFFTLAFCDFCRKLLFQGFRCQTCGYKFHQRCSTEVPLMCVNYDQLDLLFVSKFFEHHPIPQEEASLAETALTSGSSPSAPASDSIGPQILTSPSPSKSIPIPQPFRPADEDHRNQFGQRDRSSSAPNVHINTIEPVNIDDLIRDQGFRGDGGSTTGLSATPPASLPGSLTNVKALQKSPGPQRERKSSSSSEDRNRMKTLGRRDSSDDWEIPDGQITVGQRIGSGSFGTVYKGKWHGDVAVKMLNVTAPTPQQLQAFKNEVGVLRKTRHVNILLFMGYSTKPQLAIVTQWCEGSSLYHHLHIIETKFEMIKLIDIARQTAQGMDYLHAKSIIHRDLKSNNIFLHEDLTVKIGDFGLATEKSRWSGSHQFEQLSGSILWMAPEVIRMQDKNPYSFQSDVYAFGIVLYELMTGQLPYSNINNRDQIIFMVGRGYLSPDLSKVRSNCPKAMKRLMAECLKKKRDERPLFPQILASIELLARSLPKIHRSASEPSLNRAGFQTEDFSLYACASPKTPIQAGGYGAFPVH
- procedure.details: B-RAF
- protocol.conditions: B-RAF (V600E) IC50, n = 3
# pIC50 per entry
// pIC50 here means minus log10 of the molar concentration (mol/L)

compound	pIC50
COc1ccc(-c2csc(NN=C(CS(=O)(=O)c3ccccc3)c3ccc(F)cc3)n2)cc1 [Compound 19]	6.93
Cc1ccc(C(CS(=O)(=O)c2ccccc2)=NNc2nc(-c3ccc(OCCCCOc4ccc(-c5csc(NN=C(CS(=O)(=O)c6ccccc6)c6ccc(C)cc6)n5)cc4)cc3)cs2)cc1 [Compound 15]	7.28
Cc1ccc(N=Nc2sc(NN=C(CS(=O)(=O)c3ccccc3)c3ccc(C)cc3)nc2C)cc1 [Compound 7c]	6.96
Cc1ccc(C(CS(=O)(=O)c2ccccc2)=NN=C2N=C(c3ccc(C)cc3)CS2)cc1 [Compound 13b]	6.69
Cc1ccc(C(CS(=O)(=O)c2ccccc2)=NNC2=NC(=O)C(=NNc3ccccc3)S2)cc1 [Compound 11a]	7.07
Cc1ccc(C(CS(=O)(=O)c2ccccc2)=NNC2=NC(=O)C(=NNc3ccc([N+](=O)[O-])cc3)S2)cc1 [Compound 11c]	7.02
Cc1ccc(C(CS(=O)(=O)c2ccccc2)=NNc2nc(C)c(N=Nc3cccc(C)c3)s2)cc1 [Compound 7b]	7.44
NC(=S)NN=C(CS(=O)(=O)c1ccccc1)c1ccc(F)cc1 [Compound 17]	7.17
Cc1ccc(C(CS(=O)(=O)c2ccccc2)=NNC2=NC(=O)C(=NNc3ccc(Cl)cc3)S2)cc1 [Compound 11b]	6.73
Cc1ccc(C(CS(=O)(=O)c2ccccc2)=NNC(N)=S)cc1 [Compound 3]	6.94

IN: pIC50 lookup needed for Cc1ccc(C(CS(=O)(=O)c2ccccc2)=NNc2nc(C)c(N=Nc3ccccc3)s2)cc1 [Compound 7a] , thanks.
OUT: 6.70

IN: Do the same for Cc1ccc(C(CS(=O)(=O)c2ccccc2)=NN=C2N=C(c3ccc(Br)cc3)CS2)cc1 [Compound 13a] please
OUT: 7.64

====

- tgt: B-RAF (wild-type) (Homo sapiens, UniProt P15056)
- Sequence (P15056 whole entry): as the sequence (P15056 whole entry V600E) above, with E600V counted along it
Criterion: IC50 strictly under 0.2 µM. Met: true (1). Not met: false (0).

Check out these entries, answers already filled in.
compound	label
Cc1ccc(C(CS(=O)(=O)c2ccccc2)=NNC2=NC(=O)C(=NNc3ccc([N+](=O)[O-])cc3)S2)cc1 [Compound 11c]	false (0)
Cc1ccc(C(CS(=O)(=O)c2ccccc2)=NNc2nc(C)c(N=Nc3cccc(C)c3)s2)cc1 [Compound 7b]	true (1)
NC(=S)NN=C(CS(=O)(=O)c1ccccc1)c1ccc(F)cc1 [Compound 17]	true (1)

IN: Input Cc1ccc(C(CS(=O)(=O)c2ccccc2)=NNC2=NC(=O)C(=NNc3ccccc3)S2)cc1 [Compound 11a] ; condition: IC50 strictly below 0.2 µM. Does it hold?
OUT: false (0)

IN: Do the same for Cc1ccc(C(CS(=O)(=O)c2ccccc2)=NNc2nc(-c3ccc(OCCCCOc4ccc(-c5csc(NN=C(CS(=O)(=O)c6ccccc6)c6ccc(C)cc6)n5)cc4)cc3)cs2)cc1 [Compound 15] please
OUT: false (0)

IN: Do the same for Cc1ccc(C(CS(=O)(=O)c2ccccc2)=NN=C2N=C(c3ccc(Br)cc3)CS2)cc1 [Compound 13a] please
OUT: true (1)
